- System Name: EGFR (Homo sapiens)
- Construct: A431 cell lysate (SUGEN, Inc.); host or cells: A431
- Sequence (P00533 25-1210): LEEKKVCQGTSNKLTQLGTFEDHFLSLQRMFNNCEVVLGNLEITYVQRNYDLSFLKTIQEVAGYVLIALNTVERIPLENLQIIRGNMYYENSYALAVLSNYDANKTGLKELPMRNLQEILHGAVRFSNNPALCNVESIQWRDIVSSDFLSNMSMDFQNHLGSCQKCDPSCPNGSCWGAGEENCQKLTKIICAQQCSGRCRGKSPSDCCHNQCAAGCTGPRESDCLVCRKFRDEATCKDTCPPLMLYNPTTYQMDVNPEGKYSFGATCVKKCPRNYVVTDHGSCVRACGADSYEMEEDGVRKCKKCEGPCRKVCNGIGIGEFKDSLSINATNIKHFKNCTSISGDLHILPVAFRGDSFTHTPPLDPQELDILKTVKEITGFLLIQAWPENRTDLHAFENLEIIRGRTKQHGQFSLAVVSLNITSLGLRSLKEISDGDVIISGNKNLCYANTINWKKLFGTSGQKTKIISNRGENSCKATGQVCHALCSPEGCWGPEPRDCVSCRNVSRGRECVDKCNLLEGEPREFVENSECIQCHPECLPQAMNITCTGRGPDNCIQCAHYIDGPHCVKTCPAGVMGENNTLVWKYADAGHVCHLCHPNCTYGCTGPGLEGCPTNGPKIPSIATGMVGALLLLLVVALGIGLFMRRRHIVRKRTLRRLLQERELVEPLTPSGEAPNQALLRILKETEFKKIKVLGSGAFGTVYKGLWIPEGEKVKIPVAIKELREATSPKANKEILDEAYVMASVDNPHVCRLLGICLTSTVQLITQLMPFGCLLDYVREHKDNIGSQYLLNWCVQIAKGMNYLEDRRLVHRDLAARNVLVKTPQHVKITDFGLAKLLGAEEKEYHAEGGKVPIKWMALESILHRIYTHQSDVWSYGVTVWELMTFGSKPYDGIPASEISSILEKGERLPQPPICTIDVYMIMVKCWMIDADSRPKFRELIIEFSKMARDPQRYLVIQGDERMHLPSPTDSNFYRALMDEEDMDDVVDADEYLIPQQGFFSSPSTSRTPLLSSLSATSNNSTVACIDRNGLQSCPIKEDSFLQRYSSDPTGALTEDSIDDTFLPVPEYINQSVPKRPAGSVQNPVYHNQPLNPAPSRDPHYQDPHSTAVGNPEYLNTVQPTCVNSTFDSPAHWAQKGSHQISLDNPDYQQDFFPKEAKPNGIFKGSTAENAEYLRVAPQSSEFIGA
- Test Protocol: cell EGF assay
- Assay type: cell-based
The label is yes (1) for IC50 below 20 µM and no (0) for IC50 equal to or exceeding 20 µM.

[in] Answer whether the molecule O=C1Nc2ccc(Br)cc2/C1=C/c1[nH]c(C(=O)NCCCN2CCCC2)c2c1CCCC2 has IC50 strictly less than 20 µM
[out] no (0)

[in] Please let me know if CCN(CC)CCCNC(=O)c1c(C(C)C)[nH]c(/C=C2\C(=O)Nc3ccc(Br)cc32)c1-c1ccccc1 shows IC50 below 20 µM.
[out] yes (1)

[in] Regarding Cc1[nH]c(/C=C2\C(=O)Nc3ccc(Br)cc32)c(-c2ccccc2)c1C(=O)NCCN1CCCC1 , kindly confirm whether its IC50 is beneath 20 µM.
[out] no (0)

[in] Regarding CCN(CC)CCCNC(=O)c1cc(C)c(/C=C2\C(=O)Nc3ccc(Br)cc32)[nH]1 , kindly confirm whether its IC50 is beneath 20 µM.
[out] yes (1)

[in] Please indicate whether the reported IC50 of CCN(CC)CCCNC(=O)c1c(C(C)C)[nH]c(/C=C2\C(=O)Nc3ccc(Br)cc32)c1C(C)C is strictly below 20 µM.
[out] no (0)

[in] Report whether reported IC50 is lower than 20 µM (strictly) for Cc1[nH]c(/C=C2\C(=O)Nc3cc(-c4ccccc4)ccc32)c(C)c1C(=O)NCCN(C)C
[out] no (0)

[in] Say whether its IC50 is strictly beneath 20 µM. Entry: Cc1cc(C(=O)NCCCN2CCCC2)[nH]c1/C=C1\C(=O)Nc2ccc(Br)cc21
[out] yes (1)

[in] Lab log: compare recorded IC50 with 20 µM; is it strictly lower for Cc1[nH]c(/C=C2\C(=O)Nc3cc(-c4cccnc4)ccc32)c(C)c1C(=O)NCCN1CCCC1 ?
[out] no (0)

[in] Is the reported IC50 for CCN(CC)CCNC(=O)c1[nH]c(/C=C2\C(=O)Nc3cc(-c4cccnc4)ccc32)c2c1CCCC2 strictly below 20 µM?
[out] no (0)

[in] Lab note: confirm whether the reported IC50 for this molecule is below 20 µM, equality not counting. molecule: CC(C)c1[nH]c(/C=C2\C(=O)Nc3ccc(Br)cc32)c(-c2ccccc2)c1C(=O)NCCCN1CCCC1
[out] yes (1)

[in] In the record for CCOC(=O)c1cc(C)c(/C=C2\C(=O)Nc3ccc(Cl)cc32)[nH]1 , is IC50 less than 20 µM?
[out] no (0)

[in] Report whether reported IC50 is lower than 20 µM (strictly) for CCN(CC)CCN(C)C(=O)c1ccc(/C=C2\C(=O)Nc3ccc(Br)cc32)[nH]1
[out] yes (1)

[in] State whether 20 µM exceeds IC50 recorded for COc1cccc(-c2ccc3c(c2)NC(=O)/C3=C\c2[nH]c(C)c(C(=O)NCCN(C)C)c2C)c1 .
[out] no (0)

[in] Is the reported IC50 for Cc1[nH]c(/C=C2\C(=O)Nc3ccc(-c4ccccc4)cc32)c(C)c1C(=O)NCCCN(C)C strictly below 20 µM?
[out] yes (1)

The values you see were collected from patent US6573293B2.
